# target-under-test: extra domain B of oncofetal human fibronectin (ED-B) (human) (UniProt P02751)
# Sequence (P02751 1266-1356 limits assumed): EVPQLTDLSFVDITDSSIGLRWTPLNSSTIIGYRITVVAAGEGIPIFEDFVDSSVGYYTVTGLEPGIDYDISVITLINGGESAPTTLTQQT
# experiment: SPR, ED-B immobilised on the chip, pH 7.3, 1:1 Langmuir fit
pKd: −log10 of the molar value. Where no end group is shown, it is not given here.
readout-label: pKd

Answer with the recorded pKd of LAEAKVLALKELDKYGISNYYKNLINNAKTVEGVKALKEAIVAALP (designed binder, part only; not given: ED-B binding domain, linkers, tags, part only, also: fusion protein, linkers and tags not given here) [219087] only.
9.70

Answer with the recorded pKd of LAEAKVLALKELDKYGISNYYKNLINNAKTIEGVEALKDAIVAA (designed binder, part only; not given: ED-B binding domain, linkers, tags, part only) [215673] only.
10.00

Answer with the recorded pKd of LAEAKVLALKELDKYGISNYYKNLINNAKTIEGVEALKDAILAA (designed binder, part only; not given: ED-B binding domain, linkers, tags, part only) [215675] only.
9.22

Answer with the recorded pKd of LAEAKVLALKELDKYGISNYYKNLINNAKTVEGVKALKEAIVAA (designed binder, part only; not given: ED-B binding domain, linkers, tags, part only) [217806] only.
10.00

A. LAEAKVLALKELDKYGISNYYKNLIDKAKTIEGVEALKDAILAA (designed binder, part only; not given: ED-B binding domain, linkers, tags, part only) [215680]
B. LAEAKVLALKELDKYGISNYYKNLINNAKTIEGVKALKEAIVAA (designed binder, part only; not given: ED-B binding domain, linkers, tags, part only) [215670]
C. LAEAKVLALKELDKYGISNYYKNLINNAKTIEGVKALKAAIVAA (designed binder, part only; not given: ED-B binding domain, linkers, tags, part only) [215663]
Reorder the items by pKd, least to greatest. Answer with the labels in sequence, matching the requested order.
B, C, A
(B: 9.15, C: 9.70, A: 10.00)
